Test system: human Cav3.1 Cav3.2 or Cav3.3 channel
Experiment: In vitro assay T channel (FLIPR calcium fluorescence)
Format: cell-based
Conditions: HEK293 cells expressing human Cav3.1, Cav3.2 or Cav3.3; 10 mM Ca2+-induced fluo-4 fluorescence; determined up to 10 μM; read-out: T channel antagonistic activity IC50
Description: The T channel antagonistic activity (IC50 values) of the compounds of formula (I) is determined in accordance with the following experimental method and data are shown in Table 1. Human embryonic kidney (HEK293) cells expressing the human Cav3.1 Cav3.2 or Cav3.3 channel, respectively, are grown in culture medium (DMEM containing 10% heat-inactivated fetal calf serum (FCS), 100 U/ml penicillin, 100 μg/ml streptomycin and 1 mg/ml G418). […]
Listing: IC50 of selected compounds
Only the number, expressed in µM, is required.

Illustrative cases are given below, each with its answer.
Compound: CCOc1ccc(CCN(CC)CC[C@]2(O)C[C@H]3CC[C@@H]2C=C3c2ccccc2)cc1OCC (relative stereo) [Example 38]
Subject Of Test: human Cav3.1 Cav3.2 or Cav3.3 channel
Number: 6.7
--
Compound: CC1=C(c2ccccc2)[C@H]2CC[C@@H]1C[C@]2(CCN(C)CCCc1nc2ccccc2[nH]1)OC(=O)C(C)C (relative stereo) [Example 17A]
Subject Of Test: human Cav3.1 Cav3.2 or Cav3.3 channel
Number: 1.37

Moving on to another compound below.
[in] Identify IC50 associated with the compound COc1cccc2c1nc(CCCN(C)CC[C@]1(O)C[C@H]3CC[C@@H]1C=C3c1ccccc1)n2C (relative stereo) [Example 37]
[out] 6.65
